System: NCI-H23 lung
Assay: NCI-60 one-dose screen, 48 h
Conditions: 10 µM unless noted
Compounds without any hit were thinned out: in the full panel of roughly 83,000, 20% have a hit. Calls of active or inactive are those of the source. How the source made its calls: active means growth percent below 10; inactive means the rest.
Outcome codes: true (1) (active), false (0) (inactive)

compound | label.value
CSc1nc(N)nc2c1ncn2C | false (0)
C=CCn1c(SCC(=O)Nc2ccc(/C(C)=N\O)cc2)nnc1-c1cc(-c2ccc(OC)cc2)nc2ccccc12 | false (0)
COc1ccc(N)c(S)c1 | false (0)
COc1cc2c(cc1OC)-c1c(oc3c4c(ccc3c1=O)OC(C)(C)C=C4)CO2 | false (0)
COc1ccc(C[C@H](N)C(=O)N[C@@H]2[C@@H](CO)OC(n3cnc4c(N(C)C)ncnc43)[C@@H]2O)cc1 (stereo partly specified) | true (1)
O=C(NOC1OC(CO)C(O)C(O)C1O)Nc1ccccc1 (stereo unspecified) | false (0)
NCC(=O)NS(=O)(=O)OC[C@H]1O[C@@H](n2cnc3c(N)ncnc32)[C@H](O)[C@@H]1O | true (1)
COc1ccc(-c2nnc(SCC(=O)Nc3ccc(C(=O)/C=C/c4ccc(OC)c(OC)c4)cc3)o2)cc1 | false (0)
CCc1c(C)c2cc3c(c(C)c2oc1=O)OCC(=O)N3 | false (0)
CC(=O)c1ccc2c(c1)C1C=CCC1[C@H](c1cc3c(cc1Br)OCO3)N2 (stereo partly specified) | false (0)
COC(=O)c1ccc2c(c1)Oc1ccc(Cl)cc1-c1cc(C)nn1-2 | false (0)
